Tested on: A549
test-details: NCI tumour cell line growth inhibition, 48 h
Active and inactive are the calls of the source. No stated cut-off is given here; in the data, active = GI50 up to about 1.1 µM and inactive = higher.
The categories you may choose from are true (active), false (inactive)

A selection of reference data follows.
molecule: CN(C)c1ccc(/C=c2/c3ccccc3n3nc4ccccc4c23)cc1
class-label: false
//
molecule: Cc1cc(C)n(CN(Cn2nc(C)cc2C)C2CCCCC2)n1
class-label: false
//
molecule: O=C(CC/C(CC(=O)c1ccc(Br)cc1)=N\O)Nc1ccc(Cl)c(Cl)c1
class-label: false
//
molecule: N=C(/C=C/c1ccc(-c2cn3cc(/C=C/C(=N)N4CCOCC4)ccc3n2)cc1)N1CCOCC1
class-label: false
//
molecule: N=C(N)N/N=C(\c1ccc(F)cc1)c1ccc(C(F)(F)F)cc1
class-label: true

*Q* Could you check what this test reported for CCSc1nc(N)c2c(-c3ccccc3)c3c(nc2n1)CCC3 ?
*A* false

*Q* Short answer needed: outcome of this test for Cc1n[n+](Cc2ccccc2)c2sc(N)nn12 ?
*A* false

* * *

System: UACC-62
test-details: NCI tumour cell line growth inhibition, 48 h
Activity calls are given as the source filed them. Rule as the data show it: active = GI50 up to about 1.1 µM and inactive = higher.
quantity-measured: GI50

molecule: CC(=O)Nc1ccc(/C=c2\sc3nnc(CCC(=O)Nc4ccccc4Cl)n3c2=O)cc1
GI50: 23.9 µM (inactive)

*Q* Notebook entry, UACC-62 assay: GI50 of C=C(C)[C@@H]1CCc2c(c(C)cc(O)c(=O)c2O)C1 = ?
*A* 1.6 µM (inactive)

*Q* Provide value of GI50 for this record tested with UACC-62: O=C1CCC2CCc3cccc4oc1c2c34 (stereo not drawn)
*A* > 100 µM (inactive)

*Q* # get_value(readout= GI50, system= UACC-62) for Clc1ccc(-c2nc3cc(Cl)ccc3[nH]2)cc1
*A* 32.7 µM (inactive)

*Q* // map CCOc1ccc([Se][Se]c2ccc(OCC)cc2)cc1 to recorded GI50 (system: UACC-62)
*A* 95.7 µM (inactive)

*Q* Form field - read-out: GI50; system: UACC-62; submitted item: C=C(C)C[C@H](Sc1nc2ccccc2s1)[C@H](C)O
*A* 52.7 µM (inactive)

*Q* Kindly state the measured GI50 obtained for CN1CCCN2CCN(C)CCN(CC1)CC2 with UACC-62.
*A* > 100 µM (inactive)

*Q* Hello, I am looking for reported GI50 with UACC-62 for N#Cc1ccccc1C#C/C=C\C#Cc1ccccn1 . Could you help?
*A* 15.3 µM (inactive)

*Q* Recall the recorded GI50 for C=CCOCCCC(=O)C(=[N+]=[N-])C(=O)OC with UACC-62 and state it.
*A* > 100 µM (inactive)

*Q* Form field: GI50 recorded for C=CCOc1ccc(C2C(C(=O)OCC)C(=O)CC(C)(O)C2C(=O)OCC)cc1OC (stereo not drawn) with UACC-62 (enter value)
*A* > 100 µM (inactive)

* * *

Tested on: OVCAR-3
test-details: NCI tumour cell line growth inhibition, 48 h
Active and inactive are the calls of the source. Cut-off read from the data, not from the text of the source: active = GI50 up to about 1.1 µM and inactive = higher.
Listed here: items and their measured GI50.

*Q* # GI50 lookup, item CCOC(=O)CSc1nc(N)c2c(-c3ccccc3)c3c(nc2n1)CCCC3
*A* > 100 µM (inactive)

*Q* Need GI50 of O=C1/C(=C/Cc2ccco2)N=C(c2ccccc2)N1c1nc2ccc(Sc3ccccc3)cc2[nH]1 , thanks.
*A* 21.9 µM (inactive)

*Q* Please look up its GI50: Nc1n2nc(-c3ccccc3)sc2n[n+]1CC(=O)c1ccccc1
*A* 14.7 µM (inactive)

*Q* Can you share its GI50? I mean this compound: [N-]=[N+]=CC(=O)CCC(=O)N(c1ccccc1)c1ccccc1
*A* > 10 µM (inactive)

*Q* Form field: reported GI50 of C/C(Cl)=N/OC(=O)Nc1ccc(S(N)(=O)=O)c(C)c1
*A* 4.46 µM (inactive)

*Q* Any idea what GI50 was measured for CN(C)c1ccc(C=C2N=C(c3ccccc3)N(c3cc(C(=O)c4ccccc4)ccc3N3C(=O)/C(=C/c4ccc(N(C)C)cc4)N=C3c3ccccc3)C2=O)cc1 ?
*A* 2.12 µM (inactive)

*Q* // GI50 lookup, key: CC(=O)Nc1ccc(/C=c2\sc3nnc(CCC(=O)Nc4ccccc4Cl)n3c2=O)cc1
*A* 21.6 µM (inactive)

*Q* GI50 lookup needed for O=C1Nc2ccc(Cl)cc2C(=O)N2CCC[C@@H]12 , thanks.
*A* > 100 µM (inactive)

*Q* Would you mind telling me what GI50 value was observed for NC(=O)/C(=N\NC(=O)C[n+]1ccccc1)C1NC(=O)NC1=O (stereo not given) ?
*A* > 100 µM (inactive)

*Q* Form field: reported GI50 of COc1ccc(CC2c3c(cc(OC)c(OC)c3OC)CCN2C)cc1OC (stereo not given)
*A* > 100 µM (inactive)
